These measurements were taken from patent US20260306453A1.

# Test system: mice
# PROTOCOL DESCRIPTION: 2-day Porsolt Forced-Swim Test
# Assay type: in vivo
# RUN CONDITIONS: Mus musculus, ip, both days, read-out: Porsolt Forced Swim (Both Days), minimum effective dose
REPORTED PROPERTY: minimal effective dose (mg/kg)
One number for each entry, in mg/kg.

Past entries and their recorded results:
| COMPOUND | VALUE OBSERVED |
| --- | --- |
| CN(C)CCc1c(Cl)[nH]c2ccccc12 [drawing 28] | 25 |
| CC(=O)Oc1cccc2[nH]c(Br)c(CCN(C)C)c12 [drawing 29] | 5 |

Continue with the compound presented below.
Specify minimal effective dose for CC(C)N(CCc1c(Br)[nH]c2ccccc12)C(C)C [drawing 30] , system mice. 10

---

# ASSAYED SYSTEM: 5-HT6 (Homo sapiens)
# Sequence (P50406 whole entry): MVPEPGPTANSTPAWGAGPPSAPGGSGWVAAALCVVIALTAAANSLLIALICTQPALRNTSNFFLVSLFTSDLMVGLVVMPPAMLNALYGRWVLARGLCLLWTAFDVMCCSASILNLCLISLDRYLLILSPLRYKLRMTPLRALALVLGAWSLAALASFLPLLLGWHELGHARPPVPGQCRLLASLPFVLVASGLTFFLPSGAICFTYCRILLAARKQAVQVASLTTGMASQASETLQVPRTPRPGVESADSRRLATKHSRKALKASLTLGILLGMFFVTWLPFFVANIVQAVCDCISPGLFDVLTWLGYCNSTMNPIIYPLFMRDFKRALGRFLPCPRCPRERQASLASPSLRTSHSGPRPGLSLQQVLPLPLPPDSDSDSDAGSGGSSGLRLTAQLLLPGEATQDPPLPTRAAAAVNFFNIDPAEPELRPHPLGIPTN
# PROTOCOL DESCRIPTION: Radioligand binding in vitro assay, 5-HT6
REPORTED PROPERTY: pKi
Answers are plain numbers, as −log10 of the molar value.

Dear colleague, please send me the reported pKi for CN(C)CCc1c[nH]c2ccccc12 [N,N-dimethyltryptamine, reference compound] when you can. 6.87

---

# PROTOCOL DESCRIPTION: in vivo
# RUN CONDITIONS: rat, 3 mg/kg
REPORTED PROPERTY: Cmax

Dear colleague, please send me the reported Cmax for CN(C)CCc1c[nH]c2ccccc12 [N,N-dimethyltryptamine, reference compound] when you can. 60 ng/mL

---

# ASSAYED SYSTEM: UniProt P28335
# Sequence (P28335 33-458): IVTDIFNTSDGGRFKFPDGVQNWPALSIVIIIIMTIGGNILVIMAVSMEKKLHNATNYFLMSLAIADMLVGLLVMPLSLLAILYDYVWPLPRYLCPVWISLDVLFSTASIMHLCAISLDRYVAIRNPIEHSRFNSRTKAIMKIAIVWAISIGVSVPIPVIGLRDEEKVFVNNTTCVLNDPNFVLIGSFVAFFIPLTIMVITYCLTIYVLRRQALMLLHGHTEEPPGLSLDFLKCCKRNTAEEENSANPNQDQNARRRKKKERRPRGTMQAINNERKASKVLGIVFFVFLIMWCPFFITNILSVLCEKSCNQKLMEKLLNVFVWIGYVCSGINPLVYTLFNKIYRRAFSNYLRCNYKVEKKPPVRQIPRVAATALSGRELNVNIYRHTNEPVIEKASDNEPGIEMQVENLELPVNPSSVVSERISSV
Would you kindly list pKi for each of these molecules?
Give bare numbers, as −log10 of the molar value.

Past entries and their recorded results:
| MOLECULE | VALUE OBSERVED |
| --- | --- |
| CN(C)CCc1c(Cl)[nH]c2ccccc12 [drawing 10] | 6.92 |
| CC(=O)Oc1cccc2[nH]c(Br)c(CCN(C)C)c12 [drawing 12] | 5.91 |

Dear colleague, please send me the reported pKi for CC(=O)Nc1cccc2[nH]cc(CCN(C)C)c12 [drawing 15] when you can. 6.00

---

# ASSAYED SYSTEM: 5-HT5A (Homo sapiens, UniProt P47898)
# Sequence (P47898 whole entry): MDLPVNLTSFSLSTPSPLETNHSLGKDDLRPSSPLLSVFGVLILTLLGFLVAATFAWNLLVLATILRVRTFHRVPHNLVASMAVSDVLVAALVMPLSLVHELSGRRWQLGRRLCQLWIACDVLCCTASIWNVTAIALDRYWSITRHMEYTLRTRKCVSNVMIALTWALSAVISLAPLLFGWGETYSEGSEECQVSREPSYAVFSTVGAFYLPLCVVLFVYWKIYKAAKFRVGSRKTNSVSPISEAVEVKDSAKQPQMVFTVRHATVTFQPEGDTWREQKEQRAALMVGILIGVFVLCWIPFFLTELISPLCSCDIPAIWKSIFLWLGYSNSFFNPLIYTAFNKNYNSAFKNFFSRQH
# PROTOCOL DESCRIPTION: Radioligand binding in vitro assay, 5-HT5A
# RUN CONDITIONS: radioligand binding; read-out: Ki 5-HT5A
Would you kindly list Ki for each of these compounds?
One number for each entry, in µM.

Past entries and their recorded results:
| COMPOUND | VALUE UNIT | Ki |
| --- | --- | --- |
| CN(C)CCc1c(Cl)[nH]c2ccccc12 [drawing 10] | µM | 3 |
| CC(=O)Oc1cccc2[nH]c(Br)c(CCN(C)C)c12 [drawing 12] | µM | 0.894 |

Continue with the compound presented below.
Specify Ki for CN(C)CCc1c(Br)[nH]c2ccccc12 [drawing 9] , system 5-HT5A (Homo sapiens, UniProt P47898). 1.52

---

# ASSAYED SYSTEM: UniProtKB P50406
# PROTOCOL DESCRIPTION: In vitro functional activity, 5-HT6
# RUN CONDITIONS: agonism
REPORTED PROPERTY: pEC50
Numbers only, as −log10 of the molar value.

Past entries and their recorded results:
| MOLECULE | pEC50 |
| --- | --- |
| CN(C)CCc1c(Cl)[nH]c2ccccc12 [drawing 17] | 8.05 |
| CN(C)CCc1c(Br)[nH]c2ccccc12 [drawing 16] | 8.15 |
| CC(C)N(CCc1c(Br)[nH]c2ccccc12)C(C)C [drawing 19] | 6.73 |

Continue with the molecule presented below.
Dear colleague, please send me the reported pEC50 for CC(=O)Oc1cccc2[nH]c(Br)c(CCN(C)C)c12 [drawing 18] when you can. 8.10
